EXPERIMENTAL TARGET: T1, BCMA on BCMA-positive NCI-H929, ARP-1 and U266B1 cells (human, UniProt Q02223 1-184)
T1 sequence: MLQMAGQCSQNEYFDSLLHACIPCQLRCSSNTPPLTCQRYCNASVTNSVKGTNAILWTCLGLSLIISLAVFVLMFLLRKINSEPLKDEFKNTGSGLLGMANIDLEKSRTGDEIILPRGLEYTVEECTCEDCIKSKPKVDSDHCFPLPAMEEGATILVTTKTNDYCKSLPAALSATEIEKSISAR
ASSAY METHOD TEXT: cell-based or functional assay
Form field: U266B1, SC239-conjugated 2° antibody cell killing, EC50 (one value per entry).
# output: bare number, implied unit nM

In the examples that follow, each entry is paired with its recorded U266B1, SC239-conjugated 2° antibody cell killing, EC50.
BINDER | OBS VALUE
10E10 (antibody, V domains shown, chicken HybriFree-derived antibody; also called Antibody 46) VH: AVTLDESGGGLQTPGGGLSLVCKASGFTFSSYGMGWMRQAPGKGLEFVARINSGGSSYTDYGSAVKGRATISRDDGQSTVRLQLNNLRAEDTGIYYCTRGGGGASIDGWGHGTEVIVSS VL: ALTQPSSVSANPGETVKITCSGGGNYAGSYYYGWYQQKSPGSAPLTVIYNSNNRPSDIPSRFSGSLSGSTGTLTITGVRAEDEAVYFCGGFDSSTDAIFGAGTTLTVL | 2.5
10H1 (antibody, V domains shown, chicken HybriFree-derived antibody; also called Antibody 45) VH: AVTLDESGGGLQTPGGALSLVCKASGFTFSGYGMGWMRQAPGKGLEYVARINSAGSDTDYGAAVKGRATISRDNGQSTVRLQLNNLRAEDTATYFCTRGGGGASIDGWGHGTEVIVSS VL: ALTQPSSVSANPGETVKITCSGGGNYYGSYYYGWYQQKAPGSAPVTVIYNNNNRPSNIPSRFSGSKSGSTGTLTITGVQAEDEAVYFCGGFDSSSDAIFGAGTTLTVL | 0.29

We now examine a further binder.
Request: I'd like to know its U266B1, SC239-conjugated 2° antibody cell killing, EC50. The binder in question is 10F4 (antibody, V domains shown, chicken HybriFree-derived antibody; also called Antibody 37) VH: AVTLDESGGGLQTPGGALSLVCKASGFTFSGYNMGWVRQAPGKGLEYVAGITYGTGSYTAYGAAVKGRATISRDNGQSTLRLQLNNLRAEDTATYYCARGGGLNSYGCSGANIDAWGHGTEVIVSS VL: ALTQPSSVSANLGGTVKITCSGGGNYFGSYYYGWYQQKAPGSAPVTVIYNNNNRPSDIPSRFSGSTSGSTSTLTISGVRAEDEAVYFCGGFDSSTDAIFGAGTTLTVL
Result: 0.36

Reference source: patent US20240368295A1
